Data provenance: paper PMC7666139

Molecular target: T1, 6xHis/Flag-tagged human SHP2 N-SH2 domain (human, UniProt Q06124 1-107)
T1 construct: human SHP2 phosphatase, N-SH2 domain, aa; 1-107; Gene synthesized; also called SHP2 SH2-N; SHP2 SH2(N) domain; source: E. coli, purified (Nickel-NTA, gel filtration)
T1 sequence (looked up): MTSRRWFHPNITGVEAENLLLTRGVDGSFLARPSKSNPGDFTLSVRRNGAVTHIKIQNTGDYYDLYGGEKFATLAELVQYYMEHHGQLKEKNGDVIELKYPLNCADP
Assay: SPR; biotinylated phosphopeptide on a streptavidin gold sensor chip (OpenSPR); analyte 20 µM to 0.1 µM in 10 mM Tris-HCl, 100 mM NaCl, pH 7.4, 0.1% bovine serum albumin, 0.005% Tween-20, 0.05% NaN3; 40 µL/min; 1:1 interaction model
Details: both partners purified
Non-standard residues stand in square brackets, D forms with d. No end group written: not given here. pY = N[C@@H](Cc1ccc(OP(=O)(O)O)cc1)C(=O)O
quantity: Kd

Give the reported Kd for this binder. GGQDVT[pY]AQLHSLTRLREATE (also: biotin (position not given here)) [biotinylated human PIRB derived phosphopeptide]
6.7 µM
